pKi values recorded for Bis(5'-adenosyl)-triphosphatase (Homo sapiens)
Value format note: pKi is -log10 of concentration (mol/L); just state the number.

Find the recorded pKi belonging to Nc1ncnc2c1ncn2C1O[C@H](COP(=O)(O)OCC(COP(=O)(O)OCC2O[C@@H](n3cnc4c(N)ncnc43)[C@H](O)[C@@H]2O)OP(=O)(O)OC[C@H]2OC(n3cnc4c(N)ncnc43)[C@H](O)[C@@H]2O)[C@@H](O)[C@H]1O (stereo not given in full) and report it. 5.82

Please report the recorded pKi for Nc1ncnc2c1ncn2C1OC(COP(=O)(S)OCC(COP(=O)(O)S)(COP(=O)(O)S)COP(O)(=S)OCC2OC(n3cnc4c(N)ncnc43)C(O)C2O)C(O)C1O (stereo not given) . 6.15

// pKi lookup, key: Nc1ncnc2c1ncn2C1OC(COP(=O)(S)OCC(COP(O)(=S)OCC2OC(n3cnc4c(N)ncnc43)C(O)C2O)OP(=O)(S)OCC2OC(n3cnc4c(N)ncnc43)C(O)C2O)C(O)C1O (stereo not given) 7.11

Query: pKi; subject: Nc1ncnc2c1ncn2C1O[C@H](COP(O)(=S)OC=P(O)(O)COP(=O)(S)OCC2O[C@@H](n3cnc4c(N)ncnc43)[C@H](O)[C@@H]2O)[C@@H](O)[C@H]1O (stereo not given in full) 6.66

What measured pKi goes with Nc1ncnc2c1ncn2C1OC(COP(=O)(S)OCC(COP(O)(=S)OCC2OC(n3cnc4c(N)ncnc43)C(O)C2O)OP(=O)(O)S)C(O)C1O (stereo not given) ? 6.96

Look up pKi for this compound: Nc1ncnc2c1ncn2C1OC(COP(=O)(S)OCCCOP(O)(=S)OCC2OC(n3cnc4c(N)ncnc43)C(O)C2O)C(O)C1O (stereo not given) 6.64

Give its pKi value. Item: Nc1ncnc2c1ncn2C1OC(COP(=O)(S)OCC(COP(=O)(S)OCC2OC(n3cnc4c(N)ncnc43)C(O)C2O)(COP(=O)(S)OCC2OC(n3cnc4c(N)ncnc43)C(O)C2O)COP(O)(=S)OCC2OC(n3cnc4c(N)ncnc43)C(O)C2O)C(O)C1O (stereo not given) 7.19

Given the compound Nc1ncnc2c1ncn2C1O[C@H](COP(=O)(O)OCC(O)COP(=O)(O)OCC2O[C@@H](n3cnc4c(N)ncnc43)[C@H](O)C2O)[C@@H](O)[C@H]1O (stereo not given in full) , what is its reported pKi? 5.33

Next:
# pKi lookup, item Nc1ncnc2c1ncn2C1O[C@H](COP(=O)(O)OCC(COP(=O)(O)OCC2O[C@@H](n3cnc4c(N)ncnc43)[C@H](O)[C@@H]2O)OP(=O)(O)O)[C@@H](O)[C@H]1O (stereo not given in full) 6.38

If you can, please state the reported pKi value of Nc1ncnc2c1ncn2C1OC(COP(=O)(O)OCC(COP(=O)(O)O)(COP(=O)(O)OCC2O[C@@H](n3cnc4c(N)ncnc43)[C@H](O)[C@@H]2O)COP(=O)(O)OC[C@H]2OC(n3cnc4c(N)ncnc43)[C@H](O)[C@@H]2O)[C@H](O)[C@@H]1O (stereo not given in full) . 5.82
